- Study target: T1, SARS-CoV-2 spike receptor-binding domain (RBD) (SARS-CoV-2, Wuhan-Hu-1, UniProt P0DTC2)
- T1 construct: also called SARS-CoV-2 RBD
- Assay: SPR; array SPR (Carterra LSA), HC200M chip; IgG captured on immobilised anti-human Fc; antigen as analyte in a 7-point series, RBD 300 nM to 411 pM or trimer 100 nM to 137 pM, in 1x HBSTE with 0.5 mg/mL BSA; association 5 min, dissociation 11 min; one-site model; constants for the trimer are called avidities
- Protocol conditions: both partners purified
Property label: binding result

INSERT INTO results (binder, property_label, value_observed) VALUES
  ('selected anti-SARS-CoV-2 spike antibody H2 (antibody, V domains shown) VH: EVQLVQSGAEVKKPGASVKVSCKVSGYPFTRSTIHWVRQAPGKGLEWMGGINAGTGDTIYAQKFQGRVTMTEDTSTDTAYMELSSLKSEDTAVYYCARDGYSSGYYGMDVWGQGTLVTVSS VL: DIQMTQSPSSVSASVGDRVTITCRASQGISDFLAWYQQKPGKAPKLLIYGASNRATGVPSRFSGSGSGTDFTLTISSLQPEDFANYYCHQYATYPWTFGGGTKVEIK', 'binding result', 'binds'),
  ('selected anti-SARS-CoV-2 spike antibody B7 (antibody, V domains shown) VH: QVQLVQSGAEVKKPGASVKVSCKVSGYSFTDHSIHWVRQAPGKGLEWMGGINPNIGDTIYAQKFQGRVTMTEDTSTDTAYMELSSLKSEDTAVYYCAKDGWGSLLNGIAVAGLDYWGQGTLVTVSS VL: DIQMTQSPSSVSASVGDRVTITCRASQDIGNHLAWYQQKPGKAPKLLIYASSNLASGVPSRFSGSGSGTDFTLTISSLQPEDFANYYCHQYATYPWTFGGGTKVEIK', 'binding result', 'binds'),
  ('selected anti-SARS-CoV-2 spike antibody G5 (antibody, V domains shown) VH: QVQLVQSGAEVKKPGASVKVSCKVSGYSFTDHSIHWVRQAPGKGLEWMGGINPYTGDTIYAQKFQGRVTMTEDTSTDTAYMELSSLKSEDTAVYYCARDGYSYGYLSGMDVWGQGTTVTVSS VL: DIQMTQSPSSVSASVGDRVTITCRASQDISHHLAWYQQKPGKAPKLLIYDASLRATGIPSRFSGSGSGTDFTLTISSLQPEDFANYYCHQYAAYPWTFGGGTKVEIK', 'binding result', 'binds');
